Structures can show the parent of a compound that is named as a salt.
experimental endpoint: melting point

Sample answers from the record:
>  <molecule>
CCOC(=O)c1cc(-c2csc(-c3ccc4c(c3)OCO4)n2)c(=O)[nH]c1C

>  <melting point>
230 °C (dec.)

$$$$
>  <molecule>
CC(=O)NCCNc1cc(-c2nc(-c3ccc(C)[nH]c3=O)cs2)ccn1

>  <melting point>
230 °C (dec.)

$$$$
>  <molecule>
COc1ccc(CNC(=O)c2cc(-c3csc(-c4ccnc(NCc5ccc(OC)cc5)c4)n3)c(=O)[nH]c2C)cc1 (as salt: HCl)

>  <melting point>
280 °C (dec.)

$$$$
>  <molecule>
CCOC(=O)c1cc(-c2csc(-c3ccnc(NCCNC(C)C)c3)n2)c(=O)[nH]c1C

>  <melting point>
260 °C (dec.)

$$$$
>  <molecule>
CCOC(=O)c1cc(-c2csc(CS(=O)(=O)C(C)(C)C)n2)c(=O)[nH]c1C

>  <melting point>
250 °C (dec.)

$$$$

Let us move to another entry and its melting point.
Problem: Entry CCOC(=O)c1cc(-c2csc(-c3sccc3CS(=O)(=O)c3ccc(Cl)cc3)n2)c(=O)[nH]c1C has what melting point?
Result: 300 °C (dec.)
